# measurement-target: T1, Recombinant human EGFR-Fc (aa 1-645 of the extracellular domain of human EGFR fused to human Fc) (human, UniProt P00533 25-645)
# T1 construct: range 1-645; bought from R&D Systems; also called EGFR645-Fc; EGFR-Fc (HER-1); not shown: human Fc
measured-attribute: Kd (nM)
Give the number; nM is assumed, so skip it.

Tell us which Kd value is on record for E105-GS10-I1 pegylated (designed binder, chain 1 pos 221: Cys carrying a maleimide-linked 40 kDa branched PEG, written C, lower row of the two named E105-GS10-I1 pegylated) MGVSDVPRDLEVVAATPTSLLISWDAPTSRYQYYRITYGETGGNSPVQEFTVPGGLSTATISGLKPGVDYTITVYAVTDYKPHADGPHTYHESPISINYRTEIDKGSGSGSGSGSGSGSGSGSGSVSDVPRDLEVVAATPTSLLISWSARLKVARYYRITYGETGGNSPVQEFTVPKNVYTATISGLKPGVDYTITVYAVTRFRDYQPISINYRTEIDKPCQHHHHHH 7.65

The origin of these recorded values is patent US20180037631A1.
